tested.system: V1a receptor (Homo sapiens)
Construct: host or cells: CHO cells
test.summary: V1a Human Vasopressin GPCR Cell Based Agonist Calcium Flux Assay
condition.details: Table 3; CHO cells expressing human V1 receptor; read-out: Estimated V1a EC50 (nM); n = 2
Response field label: string, one of True (EC50 strictly below 30 nM) or False.

compound | class.name
NCC(=O)NCC(=O)NCC(=O)NCC(=O)NCC(=O)NCC(=O)NCC(=O)NCC(=O)NCCCC[C@H](NC(=O)[C@@H]1CCCN1C(=O)[C@@H]1CSSCCC(=O)N[C@@H](Cc2ccc(O)cc2)C(=O)N[C@@H](Cc2ccccc2)C(=O)N[C@@H](CCCC(N)=O)C(=O)N[C@@H](CC(N)=O)C(=O)N1)C(=O)NCC(N)=O | False
NCC(=O)NCCCC[C@H](NC(=O)[C@@H]1CCCN1C(=O)[C@@H]1CSSCCC(=O)N[C@@H](Cc2ccc(O)cc2)C(=O)N[C@@H](Cc2ccccc2)C(=O)N[C@@H](CCCC(N)=O)C(=O)N[C@@H](CC(N)=O)C(=O)N1)C(=O)NCC(N)=O | True
NCCCC[C@H](NC(=O)[C@@H]1CCCN1C(=O)[C@@H]1CSSC[C@H](N)C(=O)N[C@@H](Cc2ccc(O)cc2)C(=O)N[C@@H](Cc2ccccc2)C(=O)N[C@@H](CCC(N)=O)C(=O)N[C@@H](CC(N)=O)C(=O)N1)C(=O)NCC(N)=O [Lysine vasopressin (LVP), Lysine vasopressin, reference compound] | True
NCC(=O)NCC(=O)NCC(=O)NCC(=O)NCC(=O)NCCCC[C@H](NC(=O)[C@@H]1CCCN1C(=O)[C@@H]1CSSCCC(=O)N[C@@H](Cc2ccc(O)cc2)C(=O)N[C@@H](Cc2ccccc2)C(=O)N[C@@H](CCCC(N)=O)C(=O)N[C@@H](CC(N)=O)C(=O)N1)C(=O)NCC(N)=O | False

====

tested.system: V1a receptor (Homo sapiens, UniProt P37288)
Construct: host or cells: CHO cells
Sequence (P37288 whole entry): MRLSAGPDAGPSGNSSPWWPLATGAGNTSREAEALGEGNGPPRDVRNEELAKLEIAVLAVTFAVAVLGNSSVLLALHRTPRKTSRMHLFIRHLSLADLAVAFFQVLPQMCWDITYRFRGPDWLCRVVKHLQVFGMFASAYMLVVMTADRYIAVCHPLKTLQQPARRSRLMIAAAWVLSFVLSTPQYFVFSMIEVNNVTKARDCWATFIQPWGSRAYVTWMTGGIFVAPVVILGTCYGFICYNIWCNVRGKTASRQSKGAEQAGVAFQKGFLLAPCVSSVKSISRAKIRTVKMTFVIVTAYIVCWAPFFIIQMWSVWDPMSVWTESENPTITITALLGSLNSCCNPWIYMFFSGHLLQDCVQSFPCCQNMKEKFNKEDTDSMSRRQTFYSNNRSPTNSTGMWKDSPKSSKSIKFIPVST
test.summary: V1a Human Vasopressin GPCR Cell Based Agonist Calcium Flux Assay
condition.details: Table 3; read-out: V1a Highest agonist effect (% of AVP); n = 2
Recorded measurements of Emax, one per entry

mol.smiles | Emax [%]
NCC(=O)NCC(=O)NCC(=O)NCCCC[C@H](NC(=O)[C@@H]1CCCN1C(=O)[C@@H]1CSSCCC(=O)N[C@@H](Cc2ccc(O)cc2)C(=O)N[C@@H](Cc2ccccc2)C(=O)N[C@@H](CCCC(N)=O)C(=O)N[C@@H](CC(N)=O)C(=O)N1)C(=O)NCC(N)=O | 32.9
NCC(=O)NCC(=O)NCC(=O)NCC(=O)NCCCC[C@H](NC(=O)[C@@H]1CCCN1C(=O)[C@@H]1CSSCCC(=O)N[C@@H](Cc2ccc(O)cc2)C(=O)N[C@@H](Cc2ccccc2)C(=O)N[C@@H](CCCC(N)=O)C(=O)N[C@@H](CC(N)=O)C(=O)N1)C(=O)NCC(N)=O | 33.6
NCCCCCCCCCCCC(=O)NCCCC[C@H](NC(=O)[C@@H]1CCCN1C(=O)[C@@H]1CSSCCC(=O)N[C@@H](Cc2ccc(O)cc2)C(=O)N[C@@H](Cc2ccccc2)C(=O)N[C@@H](CCCC(N)=O)C(=O)N[C@@H](CC(N)=O)C(=O)N1)C(=O)NCC(N)=O | 2.5

====

tested.system: V1a receptor (Homo sapiens)
Construct: host or cells: CHO cells
test.summary: V1a Human Vasopressin GPCR Cell Based Agonist Calcium Flux Assay
condition.details: FIG. 2 / FIG. 3 legend; n=2; read-out: EC50 for V1a receptor
measurement.label: EC50 (µM)

mol.smiles | units.text | measurement
NCC(=O)NCC(=O)NCC(=O)NCC(=O)NCC(=O)NCC(=O)NCCCC[C@H](NC(=O)[C@@H]1CCCN1C(=O)[C@@H]1CSSCCC(=O)N[C@@H](Cc2ccc(O)cc2)C(=O)N[C@@H](Cc2ccccc2)C(=O)N[C@@H](CCC(N)=O)C(=O)N[C@@H](CC(N)=O)C(=O)N1)C(=O)NCC(N)=O | µM | 0.0273
NCC(=O)NCC(=O)NCC(=O)NCC(=O)NCC(=O)NCC(=O)NCC(=O)NCC(=O)NCC(=O)NCCCC[C@H](NC(=O)[C@@H]1CCCN1C(=O)[C@@H]1CSSCCC(=O)N[C@@H](Cc2ccc(O)cc2)C(=O)N[C@@H](Cc2ccccc2)C(=O)N[C@@H](CCC(N)=O)C(=O)N[C@@H](CC(N)=O)C(=O)N1)C(=O)NCC(N)=O | µM | 0.0126
NCC(=O)NCC(=O)NCC(=O)NCC(=O)NCC(=O)NCC(=O)NCC(=O)NCC(=O)NCC(=O)NCCCC[C@H](NC(=O)[C@@H]1CCCN1C(=O)[C@@H]1CSSCCC(=O)N[C@@H](Cc2ccc(O)cc2)C(=O)N[C@@H](Cc2ccccc2)C(=O)N[C@@H](CCCC(N)=O)C(=O)N[C@@H](CC(N)=O)C(=O)N1)C(=O)NCC(N)=O | µM | 0.105
NCC(=O)NCC(=O)NCC(=O)NCCCC[C@H](NC(=O)[C@@H]1CCCN1C(=O)[C@@H]1CSSCCC(=O)N[C@@H](Cc2ccc(O)cc2)C(=O)N[C@@H](Cc2ccccc2)C(=O)N[C@@H](CCCC(N)=O)C(=O)N[C@@H](CC(N)=O)C(=O)N1)C(=O)NCC(N)=O | µM | 0.0535

====

test.summary: Therapeutic index (NOAEL/NOEL): paleness, lethargy, ataxia observation in Sprague-Dawley rats (Example 7)
Assay type: in vivo
condition.details: S.C.; rat
Where a SMILES comes first, the peptide text is derived from it. Bridges are numbered along the chain shown (N, C = ends). [ ]: non-standard residue; d: D form. Aad = N[C@@H](CCCC(=O)O)C(=O)O; Dab = NCC[C@H](N)C(=O)O; Mpa = O=C(O)CCS
Collected Highest dose with no-observed effect level or paleness (NOEL) values appear next to each entry.
measurement.label: Highest dose with no-observed effect level or paleness (NOEL) (µg/kg)

compound | measurement
NCC(=O)NCC(=O)NCC(=O)NCC(=O)NCC(=O)NCC(=O)NCC(=O)NCC(=O)NCCCC[C@H](NC(=O)[C@@H]1CCCN1C(=O)[C@@H]1CSSCCC(=O)N[C@@H](Cc2ccc(O)cc2)C(=O)N[C@@H](Cc2ccccc2)C(=O)N[C@@H](CCCC(N)=O)C(=O)N[C@@H](CC(N)=O)C(=O)N1)C(=O)NCC(N)=O | 1.5
NCCC[C@H](NC(=O)[C@@H]1CCCN1C(=O)[C@@H]1CSSCCC(=O)N[C@@H](Cc2ccc(O)cc2)C(=O)N[C@@H](Cc2ccccc2)C(=O)N[C@@H](CCCC(N)=O)C(=O)N[C@@H](CC(N)=O)C(=O)N1)C(=O)NCC(N)=O | 0.5
NCC(=O)NCC(=O)NCC(=O)NCC(=O)NCC(=O)NCCCC[C@H](NC(=O)[C@@H]1CCCN1C(=O)[C@@H]1CSSCCC(=O)N[C@@H](Cc2ccc(O)cc2)C(=O)N[C@@H](Cc2ccccc2)C(=O)N[C@@H](CCCC(N)=O)C(=O)N[C@@H](CC(N)=O)C(=O)N1)C(=O)NCC(N)=O | 1.5
CCCCCCCCCCCC(=O)NCCCC[C@H](NC(=O)[C@@H]1CCCN1C(=O)[C@@H]1CSSCCC(=O)N[C@@H](Cc2ccc(O)cc2)C(=O)N[C@@H](Cc2ccccc2)C(=O)N[C@@H](CCCC(N)=O)C(=O)N[C@@H](CC(N)=O)C(=O)N1)C(=O)NCC(N)=O | 100
NCC[C@H](NC(=O)[C@@H]1CCCN1C(=O)[C@@H]1CSSCCC(=O)N[C@@H](Cc2ccc(O)cc2)C(=O)N[C@@H](Cc2ccccc2)C(=O)N[C@@H](CCCC(N)=O)C(=O)N[C@@H](CC(N)=O)C(=O)N1)C(=O)NCC(N)=O [SEQ ID NO. 31, Mpa-Tyr-Phe-Hgn-Asn-Cys-Pro-Dab-Gly-NH2] ([Mpa]YF[Aad](NH2)NCP[Dab]G-NH2; disulfide 1-6) | 0.5
NCC(=O)NCC(=O)NCC(=O)NCCCC[C@H](NC(=O)[C@@H]1CCCN1C(=O)[C@@H]1CSSCCC(=O)N[C@@H](Cc2ccc(O)cc2)C(=O)N[C@@H](Cc2ccccc2)C(=O)N[C@@H](CCCC(N)=O)C(=O)N[C@@H](CC(N)=O)C(=O)N1)C(=O)NCC(N)=O | 1.5
NCC(=O)NCC(=O)NCC(=O)NCC(=O)NCC(=O)NCC(=O)NCC(=O)NCCCC[C@H](NC(=O)[C@@H]1CCCN1C(=O)[C@@H]1CSSCCC(=O)N[C@@H](Cc2ccc(O)cc2)C(=O)N[C@@H](Cc2ccccc2)C(=O)N[C@@H](CCCC(N)=O)C(=O)N[C@@H](CC(N)=O)C(=O)N1)C(=O)NCC(N)=O | 1.5
